B1: LINE1-full (parent)
chain: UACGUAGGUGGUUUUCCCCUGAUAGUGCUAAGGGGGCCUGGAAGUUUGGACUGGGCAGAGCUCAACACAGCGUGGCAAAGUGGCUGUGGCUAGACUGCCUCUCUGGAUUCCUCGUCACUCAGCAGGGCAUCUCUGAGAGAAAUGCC

variants of: B1; assay: self-cleavage, relative activity (ratio to wild type); higher = more cleavage; in vitro, sequencing; the parent is a self-cleaving ribozyme
Response field class: string, computed from recorded self-cleavage by ranges low = under 0.2, mid = from 0.2 up to 1, high = 1 and over

construct_sequence=UACGUAGGUGGUUUUCCCCUGAUAGUGCUAAGGGGACCUGGAAGCUUGGACUGGGCAGAGCUCAACACAGCGUGGCAAAGUGGCUGUGGCUAGACUGCCUCUCUGGAUUCCUCGUCACUCAGCAGGGCAUCUCUGAGAGAAAUGCC group=high
construct_sequence=UACGUAGGUGGUUUUCCCCUGAUAGUGCUAAGGGGGCCUGGAGGUUUGGACUGGGCAGAGCUCAACACAGCGUGGCAAAGUGGCUGUGGCUAGACUGCCUCUCUGGAUUCCACGUCACUCAGCAGGGCAUCUCUGAGAGAAAUGCC group=high
construct_sequence=UACGUAGGUGGUUUUCCCCUGAUAGUGCUAAGGGGGCCUGGAAGUUUGGACUGGGCAGAGCUCAACACAGCGUGGCAAAGUGGCUGUGGCUAGACUGCCUCUCUGGUUUCCACGUCACUCAGCAGGGCAUCUCUGAGAGAAAUGCC group=high
construct_sequence=UACGUAGGUGGUUUCCCCCUGAUAGUGCUAAGGGGGCCUGGAAGUUUGGACUGGGCAGAGCUCAACACAGCGUGGCAAAGUGGCUGUGGCUAUACUGCCUCUCUGGAUUCCUCGUCACUCAGCAGGGCAUCUCUGAGAGAAAUGCC group=low
construct_sequence=UACUUAGGUGGUUUUCCCCUGAUAGUGCUAAGGGGGCCUGGAAGUUUGGACUGGGCAGAGCUCAACACAGCGUGGCAAAGUGGCUGUGGCUAGACUGCCUCUCUGGAUUCCUCGUCACUCAGCAGGGCGUCUCUGAGAGAAAUGCC group=high
construct_sequence=UACGUAGGUGGUUUUCCCCUGAUAGUGCUAAGGGGGCCUGGAAGUUUGGACUGGGCAGCGCUCAACGCAGCGUGGCAAAGUGGCUGUGGCUAGACUGCCUCUCUGGAUUCCUCGUCACUCAGCAGGGCAUCUCUGAGAGAAAUGCC group=low
construct_sequence=UACGUAGGUGGUUUUCCCCUGAUAGUGCUAAGGGGGCCUGGAAGUUUGGACUGGGCAGAGCUCAACACAGCGUGGCAAAGUGGCUGUAGCUAGACUGCCUCCCUGGAUUCCUCGUCACUCAGCAGGGCAUCUCUGAGAGAAAUGCC group=low
construct_sequence=UACGUAGGUGGUUUUCCCCUGAUAGUGCUAAGGGGGCCUGGAAGUUUGGACUGGGCAGAGCUCAACACAGCGUGGCAAAAUGGCUGUGGCUAGACUGCCUCUCUGGAUUCCUCGUCACUCAGCAGGGCAUCUCUGAGAGAAAUACC group=high
construct_sequence=UACGUAGGUGGUUUUCCCCUGAUAGUGCUAAGGGGGCCGGGAAGUUUGGACUGGGCAGAGCUCACCACAGCGUGGCAAAGUGGCUGUGGCUAGACUGCCUCUCUGGAUUCCUCGUCACUCAGCAGGGCAUCUCUGAGAGAAAUGCC group=low
construct_sequence=UACGUAGGUGGUUUUCCCCUGAUAGUGCUAAGGGGGCCUGGAAGUUUGGACUGGGCAGAGCUCAACACUGCGUGGCAAAGUGGCUGUGGCUAGACUGCCUCUCUGGAUUCCUCGUCACUCAGCAGGGCAUCUCUGAGAGAAAUGCU group=low
construct_sequence=UACGUAGGUGGUUUUCCCCUGAUAGUGCUAAGGGGGCCUGGAAGUUUGGACUGGGCAGAGCUCAACACAGCGUGGCAAAGUGGCUGCGGCUAGACUGCCUCUCUGGAUUCCUCAUCACUCAGCAGGGCAUCUCUGAGAGAAAUGCC group=mid
construct_sequence=UACGUAGGUGGUUUUCCCCUGAUAGUGCUAAGGGGGCCUGGAAGUUUGGACUGGGCAGAGCUCAACACAGCGUGGCAAAGUGGCUGUGGCUAGACUGCCUCUCUGGAUUCCUCGUCUCUCAGCAGGGCAUCUCUGAGAGAAAUGCC group=high
construct_sequence=UACGUAGGUGGUUUUCCCCUGAUAGUGCUAAGGGGGCCUGGAAGUUUGGACUGGGCAGAGCUCAACACAGCGUGGCAAAGAGGCUGUGGCUAGACUGCCUCUCUGGAUUCCUCGUCUCUCAGCAGGGCAUCUCUGAGAGAAAUGCC group=high
construct_sequence=UACGUAGGUGGUUUUCCCCUGAUAGUGCUAAGGGGGCCUGGAAGUUUGGAUUGGGCAGAGCUCAACACAGCGUGGCAAAGUGGCUGUGGCUAGACUGCCUCUCUGGAUUCCUCGUCACUCAGCAGGGCAUCUCCGAGAGAAAUGCC group=high
construct_sequence=UACGUAGGUGGUUUUCCCCCGAUAGUGCUAAGGGGGCCUGGAAGUUUGGACUGGGCAGAGCUCAACACAGCGUGGCAAAGUGGCUGUGGCUAGACUGCCUCUCUGGAUUCCUCGUCACUCAGCAGAGCAUCUCUGAGAGAAAUGCC group=high
construct_sequence=UACGUAGGUGGUUUUCCCCUGAUAGUGCUAAGGGGGCCUGUAAGUUUGGACUGGGCAGAGCUCGACACAGCGUGGCAAAGUGGCUGUGGCUAGACUGCCUCUCUGGAUUCCUCGUCACUCAGCAGGGCAUCUCUGAGAGAAAUGCC group=low
construct_sequence=UACGUAGGUGGUUUUCCCCUGAUAGUGCUAAGGGGGCCUGGAAGUUUGAACUGGGCAGAGCUCAACACAGCGUGGCAAAGUGGCUGUGGCUAGACUGCCUCUCUGGAUUCCUCGUCACUCAGCAGGGCAUCUCAGAGAGAAAUGCC group=high
construct_sequence=UACGUAGGUGGUUUUCCCCUGAUAGUGCUAAGGGGGCCUGGAAGUUUGGACUGGGCUGAGCUCAACACAGCGUGGCAAAGUGGCUGUGGCUAGACUGCCUCUCUGGAUUCCUCGUCACUAAGCAGGGCAUCUCUGAGAGAAAUGCC group=low
construct_sequence=UACGUAGGUGGUUCUCCCCUGAUAGUGCUAAGGGGGCCUGGAAGUUUGGACAGGGCAGAGCUCAACACAGCGUGGCAAAGUGGCUGUGGCUAGACUGCCUCUCUGGAUUCCUCGUCACUCAGCAGGGCAUCUCUGAGAGAAAUGCC group=mid
construct_sequence=UACGUAGGUGGUUUUCCCCUGAUAGUGCUAAGGGGGCCUGGAAGUUUGGACUGGGUAGAGCUCAACACAGCGUGGCAAAGUGGCUGCGGCUAGACUGCCUCUCUGGAUUCCUCGUCACUCAGCAGGGCAUCUCUGAGAGAAAUGCC group=low
construct_sequence=UACGUAGGUGGUUUUCCCCUGAUAGUGCUAAGGGGGCCUGGAAGUUUGGACUGGGCAGAGCUCAACACAGCGUGGCAAAGUGGCUGUGGCUAGACCGCCUCUCUGGAUUCCUUGUCACUCAGCAGGGCAUCUCUGAGAGAAAUGCC group=low
construct_sequence=UACGUAGGUGGCUUUCCCCUGAUAGUGCUAAGGGGGCCAGGAAGUUUGGACUGGGCAGAGCUCAACACAGCGUGGCAAAGUGGCUGUGGCUAGACUGCCUCUCUGGAUUCCUCGUCACUCAGCAGGGCAUCUCUGAGAGAAAUGCC group=high
construct_sequence=UACGUAGGUGGUUUUCCCCUGAUAGUGCUAAGGGGGCCUGGAAGCUUGGACUGGGCAGAGCUCAACACAGCGUGGCAAAGUGGCUGUGGCUAUACUGCCUCUCUGGAUUCCUCGUCACUCAGCAGGGCAUCUCUGAGAGAAAUGCC group=low
construct_sequence=UACGUAGGUGGUUUUCCCCUGAUAGUGCUAAGGGGGCCCGGAAGUUUGGACUGGGCAGAGCUCAACGCAGCGUGGCAAAGUGGCUGUGGCUAGACUGCCUCUCUGGAUUCCUCGUCACUCAGCAGGGCAUCUCUGAGAGAAAUGCC group=mid
construct_sequence=UACGUAGGUGGUAUUCCCCUGAUAGUGCUAAGGGGGCCUGGAAGUUUGGACUGGGCAGAGCUCAACACAGCGUGGCAAAGUGGCUGUGGCUAGACUGCCUCUCUGGUUUCCUCGUCACUCAGCAGGGCAUCUCUGAGAGAAAUGCC group=high
construct_sequence=UACGUAGGUGGUUUUCCCCUGAUAGUGCUAAGGGGGCCUGGAAGUUUGGACCGGGCAGAGCUCAACACAGCGUGGCAAAGUGGCUGUGGCUAGACUGCCUCUCUAGAUUCCUCGUCACUCAGCAGGGCAUCUCUGAGAGAAAUGCC group=high
construct_sequence=UACGUAGGUGGUUUUCCCCAGAUAAUGCUAAGGGGGCCUGGAAGUUUGGACUGGGCAGAGCUCAACACAGCGUGGCAAAGUGGCUGUGGCUAGACUGCCUCUCUGGAUUCCUCGUCACUCAGCAGGGCAUCUCUGAGAGAAAUGCC group=mid
construct_sequence=UACGUAGGUGGUUUUCCCCUGAUAGUGCUAAGGGGGCCUGGAAGUUGGGACUGGGCAGAGCUCAACACAGCGUGGCAAAGUGGCUGUGGCUAGACUGCCUCUCUGGAUUCCUCGUCACUCAGCGGGGCAUCUCUGAGAGAAAUGCC group=mid
construct_sequence=UACGUAGGUGGUUUUCCCCUGAUUGUGCUAAGGGGGCCUGGGAGUUUGGACUGGGCAGAGCUCAACACAGCGUGGCAAAGUGGCUGUGGCUAGACUGCCUCUCUGGAUUCCUCGUCACUCAGCAGGGCAUCUCUGAGAGAAAUGCC group=high
construct_sequence=UACGUAGGUGGUUUUCCCCUGAUAGUGCUAAGGGGGCCUGGAAGUUUGGACUGGGCAGAGCUCAGCACAGCGUGGCAAAGUGGCUGUGGCUAGACUGCCUCUCUGGAUUCCUCGUUACUCAGCAGGGCAUCUCUGAGAGAAAUGCC group=low
construct_sequence=UACGUAGGUGGUUUUCCCCUGAUAGUGCUAAGGGGGCCUGGAAGUUUGGACUGGGCAGAGCUCAACACAGCGUGGCAAAGUGGCAGUGGCUAGACUGCCUCUCUGGAUUCCUCGUCACUCUGCAGGGCAUCUCUGAGAGAAAUGCC group=low
construct_sequence=UACGUAGGUGGUUUUCCCCUGAUAGUGCUAAGGGGGCCUGGAAGUUUGGACUGGGCAGAGCUCAACACAGCGUGGCAAAGUGGCUGUGGCUAGACUGCCUCUCUGGAUUCCUCGUCACUCAACAGGGCAACUCUGAGAGAAAUGCC group=high
construct_sequence=UACGUAGGUGGUUUUCCCCUGAUAGUGCUAAGGGGGCCUGGAAGUUUGGACUGGGCAGAGCUCAACACAGCGUGGCAAGGUGGCUGUGGCUAGACUGCCUCUCUGGAUUCCUCGUCACUCAGCAGGGCGUCUCUGAGAGAAAUGCC group=high
construct_sequence=UACGUAAGUGGUUUUCCCCUGAUAGUGCUAAGGGGGCCUGGAAGUUUGGACUGGGCAGAGCUCAACACAGCGUGGCAAAGUGGCUGUGGCUAGACUGCCUCCCUGGAUUCCUCGUCACUCAGCAGGGCAUCUCUGAGAGAAAUGCC group=high
construct_sequence=UACGUAGGUGGUUUUCCCCUGAUAGUGCUAAGGGGGCCUGGAAGUUUGGACUGGGCAGAGCUCAACACAGCGUGGCAAAGUGGCUGUGGCUAGACUUCCUCUCUGGACUCCUCGUCACUCAGCAGGGCAUCUCUGAGAGAAAUGCC group=low
construct_sequence=UACGUAGGUGGUUUUCCCCUGAUAGUGCUAAGGGGGCCUGGAAGUUUGGACUGGGCAGAGCUCAACACAGCGUGGCAAAGUGGCUGUGGCUAGACUGCCUCUCUGGAUUCCUCGUCACUCAGGAGGGCAUCUAUGAGAGAAAUGCC group=high
construct_sequence=UACGUAGGUGGUUUCCCCCUGAUAGUGCUAAGGGGGCCUGGAAGUUUGGACUGGGCAGAGCUCAACACAGCGUGGCAAAGUGGCUGUGGCUAGACUGCCUCUCUGGAUUCCUCGUCACUCAGCAUGGCAUCUCUGAGAGAAAUGCC group=mid
construct_sequence=UACGUAGGUGGUUUUCCCCUGAUAGUGCUAAGGGGGCCUGGAAGUUUGGACUGGGCAGAGCUCGACACAGCGUGGCAAAGUGGCUGUGGCUAGACUGCCUCUCUGGAUUCCUCGUCACUCAGCAGGGCAUCCCUGAGAGAAAUGCC group=mid
construct_sequence=UACGUAGGUGGUUUUCCCCUGAUAGUGCUAAGGGGGCCUGGAAGUUUGGACUGGGCAGAGUUCAACACAGCGUGGCAAAGUGGCUGUGGCUAGACUGCCUCUCUGGAUUCCUCGUCGCUCAGCAGGGCAUCUCUGAGAGAAAUGCC group=low
construct_sequence=UACGUAGGUGGUUUUACCCUGAUAGUGCUAAGGGGGCCUGGAAGUUUGGACUGGGCAGAGCUCAACACAGCGUGGCAAAGUGGCUGUGGCUAGACUGCCUCUCUGGGUUCCUCGUCACUCAGCAGGGCAUCUCUGAGAGAAAUGCC group=mid
construct_sequence=UACGUAGGUGGUUUUCCCCUGAUAGUGCUAAGGGGGCCUGGAAGUUUGGACUGGGCAGAGCUCAACACAGCGUGGCAAAGUGGCUGUGGCUAGACUGCCUCUCUGGAUUCCUCGUCACUCACCAGGGCAUCUCUGAGAGGAAUGCC group=high
construct_sequence=UACGUAGGUGGGUUUCCCCUGAUAGUGCUAAGGGGGCCUGGAAGUUUGGUCUGGGCAGAGCUCAACACAGCGUGGCAAAGUGGCUGUGGCUAGACUGCCUCUCUGGAUUCCUCGUCACUCAGCAGGGCAUCUCUGAGAGAAAUGCC group=high
construct_sequence=UACGUUGGUGGUUUUCCCCUGAUAGUGCUAAGGGGGCCUGGAAGUUUGGACUGGGCAGAGCUCAACACAGCGUGGCAAAGUGGCUGUGGCUAGACUGCCUCUCUGGAUUCCUCGUCACUCAGCAGGGCAUCUCUGGGAGAAAUGCC group=high
construct_sequence=UACGUAGGUGGUUUUCCCCUGAUAGUGCUAAGGAGGCCUGGAAGUUUGGACUGGGCAGAGCUCAACACAGCGUGGCAUAGUGGCUGUGGCUAGACUGCCUCUCUGGAUUCCUCGUCACUCAGCAGGGCAUCUCUGAGAGAAAUGCC group=high
construct_sequence=UACGUAGGUGGUUUUCCCCUGAUAGUGCUAAGGGGGCCUGGAAGUUUGGACUGGGCAGAGCUCAACACAGCGUGGCAAAGUGGCUGUGGCUAGACAGCCUCUCUGGAUUCCUCGUCACUCUGCAGGGCAUCUCUGAGAGAAAUGCC group=low
